The reported numbers originate from the supplement of paper PMC10724198.

test system: Saccharomyces cerevisiae; assay: protein stability index of tFT-peptide fusion (C-terminal peptide) (PSI (0-1 scale)); higher = more stable (slower turnover); conditions: genetic background: wild type; temperature: 30 C
OUTCOME MEASURE: protein stability index

For orientation, consider the following solved cases.
- SEQUENCE ENTRY: "RIEKNTKRSEIW"
  ENDPOINT VALUE: 0.665
- SEQUENCE ENTRY: "SPSRVSYFFFFS"
  ENDPOINT VALUE: 0.641
- SEQUENCE ENTRY: "ETQKEKRENAKP"
  ENDPOINT VALUE: 0.713
- SEQUENCE ENTRY: "GSLGWRGLVRFF"
  ENDPOINT VALUE: 0.611
- SEQUENCE ENTRY: "IPPNPPPPNTIA"
  ENDPOINT VALUE: 0.557
- SEQUENCE ENTRY: "CFPFYVSCLLVL"
  ENDPOINT VALUE: 0.321
- SEQUENCE ENTRY: "RNRRKEMKKGRE"
  ENDPOINT VALUE: 0.631
- SEQUENCE ENTRY: "LFSPPTFFLFHR"
  ENDPOINT VALUE: 0.645

Here's the next entry for you.
Req: Tell me the measured protein stability index of `SIFWWWLVFILG` , please.
Resp: 0.418

====

Here, each record is paired with measured protein stability index data.
test system: Saccharomyces cerevisiae; experiment: protein stability index of tFT-peptide fusion (C-terminal peptide) (PSI (0-1 scale)); higher = more stable (slower turnover); details: genetic background: das1 deletion; temperature: 30 C
I only need the number, thanks.

- SEQUENCE ENTRY: "LCFSKDIQLDFQ [FIG4 C-terminal 12 aa]"
  ENDPOINT VALUE: 0.714

Here's the next entry for you.
Req: Which protein stability index is reported for this sequence? PRGQDTEDHILE [PIF1 C-terminal 12 aa]
Resp: 0.725

====

test system: Saccharomyces cerevisiae; assay: protein stability index of tFT-peptide fusion (C-terminal peptide) (PSI (0-1 scale)); higher = more stable (slower turnover); details: genetic background: wild type; temperature: 30 C
Use MET when the recorded protein stability index is no lower than 0.7; use NOT MET when it is lower.

Req: Does `CRGGRHFSREKF` have a reported protein stability index of at least 0.7?
Resp: MET

====

Here the recorded protein stability index is given for each entry.
test system: Saccharomyces cerevisiae; assay: protein stability index of tFT-peptide fusion (C-terminal peptide) (PSI (0-1 scale)); higher = more stable (slower turnover); conditions: genetic background: wild type; temperature: 30 C
Just the number, please, no unit attached.

Check out these entries, answers already filled in.
- SEQUENCE ENTRY: "VFIVVEFRLSLY"
  ENDPOINT VALUE: 0.17
- SEQUENCE ENTRY: "GYLFICSWCEGF"
  ENDPOINT VALUE: 0.346
- SEQUENCE ENTRY: "FVMTYCLMSVSK"
  ENDPOINT VALUE: 0.07
- SEQUENCE ENTRY: "FIICAASWFFLG"
  ENDPOINT VALUE: 0.127
- SEQUENCE ENTRY: "KWGRFQQVMVIN"
  ENDPOINT VALUE: 0.156

Okay, next one:
Req: Looking for the measured protein stability index of `RARRFGKWERSG` , can you help?
Resp: 0.377

====

tested on: Saccharomyces cerevisiae; assay: protein stability index of tFT-peptide fusion (C-terminal peptide) (PSI (0-1 scale)); higher = more stable (slower turnover); conditions: genetic background: das1 deletion; temperature: 37 C
OUTCOME MEASURE: protein stability index

Known protein stability index results, listed for orientation:
- SEQUENCE ENTRY: "LFSIFMSYRVYI"
  protein stability index: 0.486
- SEQUENCE ENTRY: "RTFPYSALSFVS"
  protein stability index: 0.718
- SEQUENCE ENTRY: "VCCSSVSLLVFA"
  protein stability index: 0.44
- SEQUENCE ENTRY: "LWFFVGFAVYGG"
  protein stability index: 0.513

Req: Consider the sequence shown here: `LLVCLGYFLFLG` What is its recorded protein stability index?
Resp: 0.484

Req: Then `LSVMKLFVMVGP` ?
Resp: 0.502

Req: Param item: `DRRYIISLIYIL`
Resp: 0.576

Req: How about this sequence: `PFFCFLLFCFSL`
Resp: 0.546

Req: Now the same for `VMFCRFPLRFGC`
Resp: 0.745

Req: Entry `LSVSLFPIRYVG` please
Resp: 0.764

Req: Param item: `FSVLRLVIVSLL`
Resp: 0.537

Req: Next entry: `GLFAVWVVGVWC`
Resp: 0.219

Req: Proceed to `RKQLSCIMIWCK`
Resp: 0.431

Req: And what about the sequence `FYSLYLSLVCFN` ?
Resp: 0.454

Req: Likewise for `LLILSVRPFVFV` ?
Resp: 0.544

Req: For `LYLGCVLFVLFR` then?
Resp: 0.368

====

test system: Saccharomyces cerevisiae; assay: protein stability index of tFT-peptide fusion (C-terminal peptide) (PSI (0-1 scale)); higher = more stable (slower turnover); conditions: genetic background: wild type; temperature: 37 C
OUTCOME MEASURE: protein stability index
Please reply with the value in numeric form only.

Some sequences with known protein stability index results, for comparison:
- SEQUENCE ENTRY: "GCGFSFFHIVVL"
  TARGET: "Saccharomyces cerevisiae"
  protein stability index: 0.225
- SEQUENCE ENTRY: "ALLIYFLCRCIP"
  TARGET: "Saccharomyces cerevisiae"
  protein stability index: 0.483

Req: Query: protein stability index; subject: `PFALTPPPSPRS`
Resp: 0.52

Req: Input `CFTLSLCLAFFF`
Resp: 0.409

Req: Same thing, different sequence: `CCSRFLMLRILV`
Resp: 0.126

Req: What do we get for `LFLSIFFFHLLF` ?
Resp: 0.385

Req: Let us now turn to `CPPPPPSLLLLC`
Resp: 0.298

Req: Try `LLCSLGFRFSLF` next.
Resp: 0.546

Req: Follow-up entry: `VGSSSGRLLYLC`
Resp: 0.43

Req: Follow-up entry: `GVMSICRWMISV`
Resp: 0.439

====

# Lookup of reported protein stability index keyed by entry
tested on: Saccharomyces cerevisiae; test: protein stability index of tFT-peptide fusion (C-terminal peptide) (PSI (0-1 scale)); higher = more stable (slower turnover); conditions: genetic background: wild type; temperature: 30 C
I'd appreciate a reply containing only the number, no unit.

- SEQUENCE ENTRY: "TKGEVATKPASY [MGA1 C-terminal 12 aa]"
  protein stability index: 0.703
- SEQUENCE ENTRY: "WTTEPYLQRIIW [DIE2 C-terminal 12 aa]"
  protein stability index: 0.718
- SEQUENCE ENTRY: "LEHMLEGKEQDE [PRM5 C-terminal 12 aa]"
  protein stability index: 0.751
- SEQUENCE ENTRY: "MKLFEENKKEEE [PET111 C-terminal 12 aa]"
  protein stability index: 0.684

Req: Sample LFQALKLEWEII [TEP1 C-terminal 12 aa] — what was its protein stability index?
Resp: 0.69

Req: Same for LNNKDTKSVRHA [BRR6 C-terminal 12 aa]
Resp: 0.711

Req: Here is the next sequence: PFPQKHRDNHLV [YOR053W C-terminal 12 aa]
Resp: 0.711

Req: What about DEFIKKNSDKIR [EXO84 C-terminal 12 aa] ?
Resp: 0.64

Req: Then what about the sequence AKGLAKTEIANQ [GIR2 C-terminal 12 aa] ?
Resp: 0.656

Req: Entry KNRRRNTKKIAF [RLP24 C-terminal 12 aa] please
Resp: 0.668

Req: Also VQEWEVLGRVDV [CPD1 C-terminal 12 aa] , if possible.
Resp: 0.692

====

test system: Saccharomyces cerevisiae; assay: protein stability index of tFT-peptide fusion (C-terminal peptide) (PSI (0-1 scale)); higher = more stable (slower turnover); conditions: genetic background: wild type; temperature: 30 C
Reported values of protein stability index for individual entries
The answer should be a number; do not append a unit.

- SEQUENCE ENTRY: "PFALTPPPSPRS"
  OUTCOME MEASURE: "protein stability index"
  ENDPOINT VALUE: 0.426

Req: I am curious: what protein stability index value has been reported for `PTIPLLPPPLPP` ?
Resp: 0.622

Req: And the next one, `LFLSFLLFVLAF` ?
Resp: 0.388

Req: Now consider `VSSFGHTFCGWI` and answer again.
Resp: 0.618

Req: Input `EAQGVEMMGWAV`
Resp: 0.696

Req: Next record, please: `ARPGSVIAQLRV`
Resp: 0.598
